Recorded ELISA absorbance by entry
- system.tested: T1, human EpCAM protein (human, UniProt P16422 24-265)
- T1 construct: biotinylated in the Octet assays; also called hu EpCAM; biotinylated human EpCAM protein
- T1 sequence (looked up): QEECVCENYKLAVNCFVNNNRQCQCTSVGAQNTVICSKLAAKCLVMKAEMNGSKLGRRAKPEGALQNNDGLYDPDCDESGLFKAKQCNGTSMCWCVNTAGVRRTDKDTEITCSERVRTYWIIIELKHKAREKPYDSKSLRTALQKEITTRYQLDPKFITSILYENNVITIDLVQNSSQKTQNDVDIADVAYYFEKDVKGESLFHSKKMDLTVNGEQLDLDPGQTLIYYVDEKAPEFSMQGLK
- test: colorimetric ELISA

{"columns": ["binder", "ELISA absorbance [absorbance]"],
 "data": [
  ["Llama anti-EpCAM single domain antibody EPL129 (VHH, E. coli periplasmic extract) VHH: QVQLQESGGGLVQAGGSLRLSCAASGFAFGNHWMYWYRQAPGRGRELVASISSGGSTNYVDSVKGRFTISRDNARNTVYLQMYSLRPEDTAVYYCGTSDNWGQGTQVTVSS", 2],
  ["Llama anti-EpCAM single domain antibody EPL136 (VHH, E. coli periplasmic extract) VHH: QVQLQESGGGLVQPGGSLRLSCAASGDTFLRYAMGWFRQAPGKEREFVAAITWNGGNTDYAGSLKGRFTISRDNTKNTVYLQMNSLKPEDTAVYYCAADLTFGLASSHYQYDYWGQGTQVTVSS", 0.9],
  ["Llama anti-EpCAM single domain antibody EPL58 (VHH, E. coli periplasmic extract) VHH: QVQLQESGGGLVQAGGSLRLSCAASGPIFSDTIRTMGWYRQAAGKQRELVATIASFPSRTNYVDSVKGRFTISRDIAKNTVYLQMDSLKPEDTAVYYCNVDLASIPTKTYWGQGTQVTVSS", 1.1],
  ["Llama anti-EpCAM single domain antibody EPL83 (VHH, E. coli periplasmic extract) VHH: QVQLQESGGGLVQAGGSLRLSCAVSGSIFSLNTLAWYRQAPGRQRDLIARITGGGTTVYADSVKGRFTISRDNAKNTVYLQMNSLKPEDTAVYYCNLMVRHPSGSTYEYWGQGTQVTVSS", 2],
  ["Llama anti-EpCAM single domain antibody EPL31 (VHH, E. coli periplasmic extract) VHH: QVQLQESGGGLVHTGGSLRLSCAASGDTFLRYAMGWFRQAPGKEREFVAAITWNGGNTDYAGSLKGRFTISRDNTKNTVYLQMNSLKPEDTAVYYCAADLTFGLASSHYQYDYWGQGTQVTVSS", 0.6],
  ["Llama anti-EpCAM single domain antibody EPL60 (VHH, E. coli periplasmic extract) VHH: QVQLQESGGGLVQAGGSLRLSCAASEYILSMYRMAWYRQAPGKVRELVADMSSGGTTNYADFVKGRFTISRDNDRNTVYLQMNRLQPEDTAAYYCNVAGRTGPPSYDAFNNWGQGTQVTVSS", 1.1]
]}
